The reported numbers originate from PubChem BioAssay (NCI).

System: MDA-MB-435
Procedure Summary: NCI tumour cell line growth inhibition, 48 h
Property Name: TGI

- Structure Smiles: "Cn1cc(C2=C(c3cn(C)c4ccc(N)cc34)C(=O)NC2=O)c2ccccc21"
  Result: "> 25 µM"

Hi team, please reply with TGI for each item in this list.
1. Cc1ccc(C(=O)Cc2nc3c([nH]c2=O)c(C)nn3-c2ccccc2)c(C)c1
2. CCOC(=O)Cn1nnc2cc(Nc3c(C)[n+]([O-])c4cc(F)c(OCC)cc4[n+]3[O-])ccc21

1: > 10 µM; 2: > 100 µM

----------
Would you kindly list TGI for each of these compounds?
Tested on: BT-549 breast
Procedure Summary: NCI tumour cell line growth inhibition, 48 h

- Compound: "Nc1c(S(N)(=O)=O)cc(S(N)(=O)=O)cc1S(N)(=O)=O"
  Result: "> 100 µM"
- Compound: "C=C1C(=O)O[C@@H]2C[C@@]3(C)CC(=O)C=C(C)[C@@H]3C[C@H]12"
  Result: "27.6 µM"

Hi team, please reply with TGI for each item in this list.
1. COc1ccc2nc(-c3ccccc3)cc(Nc3cccc(/C(C)=N\O)c3)c2c1
2. O=C(O)c1cc[c]([Hg][S]c2ncnc3nc[nH]c23)cc1
3. COc1cc(OC)cc(Oc2nc3cc(F)c(F)cc3nc2-c2ccccc2)c1
4. COC(=O)C1=C(C(=O)OC)SC(=C2SC3=C(SC(=C4SCCS4)S3)S2)S1
5. N#Cc1nc(C2CCC(=O)O2)oc1N (stereo not drawn)

1. > 100 µM
2. 21.6 µM
3. > 100 µM
4. > 100 µM
5. > 100 µM

Return reported TGI; argument: `Oc1c(OCc2nnc(CCCCCCCCc3nnc(COc4ccc5ccccc5c4O)o3)o2)ccc2ccccc12`
> 100 µM

----------
Would you kindly list TGI for each of these compounds?
Tested on: K-562 leukemia
Procedure Summary: NCI tumour cell line growth inhibition, 48 h

Recorded TGI, per entry:
- Compound: "CON(C)C(=O)C(C)NC(=O)OCc1ccccc1 (stereo not drawn)"
  TGI: "> 100 µM"
- Compound: "CC(=O)N(CCN)CCN"
  TGI: "> 10 µM"

Let's switch to this compound now.
Return reported TGI; argument: `C[n+]1c(-c2ccc(NC(=O)c3ccc(C(=O)Nc4ccc(-c5cn6ccccc6[n+]5C)cc4)cc3)cc2)cn2ccccc21`
> 100 µM

----------
Tested on: HOP-92 NSCLC
Procedure Summary: NCI tumour cell line growth inhibition, 48 h
Property Name: TGI

Recorded TGI, per entry:
- Compound: "O=C1NC(=S)NC(=O)C1C(c1ccc(Cl)cc1)C1C(=O)NC(=S)NC1=O"
  TGI: "> 100 µM"
- Compound: "CCN(CC)c1ccc(NC(=S)NN(C)C)cc1"
  TGI: "> 10 µM"
- Compound: "CC(=O)c1cccc(N(/C=C/C(=O)C(F)(F)F)CC(=O)c2ccc(Cl)cc2)c1"
  TGI: "> 100 µM"
- Compound: "Nc1cc2c3c(cccc3c1)NC2=O"
  TGI: "> 100 µM"
- Compound: "C=C1C[C@@H]2CC[C@@]34C[C@H]5O[C@H]6[C@@H](O3)[C@H]3O[C@H](CC[C@@H]3O[C@H]6[C@H]5O4)CC(=O)C[C@@H]3[C@@H](OC)[C@@H](C[C@H](O)CN)O[C@H]3C[C@H]3O[C@@H](CC[C@@H]1O2)C[C@@H](C)C3=C"
  TGI: "> 1 µM"
- Compound: "Cc1nc2c(n1CC(C)(C)C)C(=O)c1ccccc1C2=O"
  TGI: "> 100 µM"
- Compound: "CC(C)=CCC12Cc3ccc(O)cc3C(C(C)CN1)C2C (centres undefined)"
  TGI: "> 100 µM"
- Compound: "CC(C)N(C(=O)C12C3C4C1C1C2C3C41C(O)C(C)(C)C)C(C)C (centres undefined)"
  TGI: "> 50 µM"

Let's switch to this compound now.
Return reported TGI; argument: `COC(=O)c1nc(NN)[nH]c(=O)c1CCCCCc1c(C(=O)OC)[nH]c(NN)cc1=O`
> 100 µM
